Let's look at some compounds and their measured selectivity ratio.
Measurement protocol: Therapeutic index, ratio of LD50 for Swiss mice (Mus musculus) to […] for Plasmodium berghei infected Swiss mice (Mus musculus)
Run parameters: read-out: Ratio LD50/ED50

{"Smiles code": "CCOc1cc(NC2(CCCN)CC2)c2nc(OC)ccc2n1", "Relation sign": ">", "selectivity ratio": 278}
{"Smiles code": "CCOc1cc(NC(C)(C)CCCN)c2ncccc2n1", "Relation sign": "=", "selectivity ratio": 163}
{"Smiles code": "CCOc1cc(NC2(CCCN)CC2)c2ncccc2n1", "Relation sign": "=", "selectivity ratio": 183}
{"Smiles code": "COc1cc(NC(C)(C)CCCN)c2nc(OC)ccc2n1", "Relation sign": ">", "selectivity ratio": 125}
{"Smiles code": "COc1cc(NC2(CCCN)CC2)c2ncccc2n1", "Relation sign": "=", "selectivity ratio": 91}
{"Smiles code": "CC(C)Oc1cc(NC2(CCCN)CC2)c2nc(C(F)(F)F)ccc2n1", "Relation sign": ">", "selectivity ratio": 769}
{"Smiles code": "CC(C)Oc1cc(NC(C)(C)CCCN)c2ncccc2n1", "Relation sign": "=", "selectivity ratio": 506}
{"Smiles code": "CC(C)Oc1cc(NC2(CCCN)CC2)c2ncccc2n1", "Relation sign": "=", "selectivity ratio": 603}
{"Smiles code": "COc1cc(NC(C)(C)CCCN)c2ncccc2n1", "Relation sign": "=", "selectivity ratio": 72}
{"Smiles code": "COc1ccc2nc(OC(C)C)cc(NC3(CCCN)CC3)c2n1", "Relation sign": ">", "selectivity ratio": 645}
{"Smiles code": "CCOc1cc(NC2(CCCN)CC2)c2nc(C(F)(F)F)ccc2n1", "Relation sign": ">", "selectivity ratio": 267}
{"Smiles code": "COc1cc(NC(C)(C)CCCN)c2nc(C(F)(F)F)ccc2n1", "Relation sign": ">", "selectivity ratio": 133}

###

Measurement protocol: Toxicity in Swiss mouse after 10 days
Format: organism-based
Run parameters: in vivo
Measured endpoint: LD50 at 240 h (mg/kg)

{"Compound": "CCOc1cc(NC2(CCCN)CC2)c2nc(OC)ccc2n1", "Unit of measure": "mg/kg", "Relation sign": ">", "Reported measurement": 200}
{"Compound": "COc1cc(NC(C)CCCN)c2ncccc2c1 (stereo not drawn)", "Unit of measure": "mg/kg", "Relation sign": "=", "Reported measurement": 55}
{"Compound": "CCOc1cc(NC2(CCCN)CC2)c2nc(C(F)(F)F)ccc2n1", "Unit of measure": "mg/kg", "Relation sign": ">", "Reported measurement": 200}
{"Compound": "CC(C)Oc1cc(NC2(CCCN)CC2)c2ncccc2n1", "Unit of measure": "mg/kg", "Relation sign": "=", "Reported measurement": 175}
{"Compound": "CC(C)Oc1cc(NC(C)(C)CCCN)c2ncccc2n1", "Unit of measure": "mg/kg", "Relation sign": "=", "Reported measurement": 167}
{"Compound": "COc1cc(NC2(CCCN)CC2)c2ncccc2n1", "Unit of measure": "mg/kg", "Relation sign": "=", "Reported measurement": 145}
{"Compound": "COc1cc(NC(C)(C)CCCN)c2nc(OC)ccc2n1", "Unit of measure": "mg/kg", "Relation sign": ">", "Reported measurement": 200}
{"Compound": "COc1ccc2nc(OC(C)C)cc(NC3(CCCN)CC3)c2n1", "Unit of measure": "mg/kg", "Relation sign": ">", "Reported measurement": 200}
{"Compound": "CCOc1cc(NC(C)(C)CCCN)c2ncccc2n1", "Unit of measure": "mg/kg", "Relation sign": "=", "Reported measurement": 155}
{"Compound": "COc1cc(NC(C)(C)CCCN)c2ncccc2n1", "Unit of measure": "mg/kg", "Relation sign": "=", "Reported measurement": 130}
{"Compound": "CC(C)Oc1cc(NC2(CCCN)CC2)c2nc(C(F)(F)F)ccc2n1", "Unit of measure": "mg/kg", "Relation sign": ">", "Reported measurement": 200}
{"Compound": "CCOc1cc(NC2(CCCN)CC2)c2ncccc2n1", "Unit of measure": "mg/kg", "Relation sign": "=", "Reported measurement": 161}
{"Compound": "COc1cc(NC(C)(C)CCCN)c2nc(C(F)(F)F)ccc2n1", "Unit of measure": "mg/kg", "Relation sign": ">", "Reported measurement": 200}

###

Let's look at some compounds and their measured Activity.
Test system: Mastomys coucha
Measurement protocol: Toxicity against Mastomys coucha assessed as methemoglobin levels at 15 mg/kg after 3 days
Type: organism-based
Parameters: dose 15 mg/kg
Run parameters: in vivo, 72 h

{"Compound": "COc1cc(NC(C)(C)CCCN)c2nc(OC)ccc2n1", "Measured target": "Mastomys coucha", "Unit of measure": "%", "Activity": 0.13}
{"Compound": "COc1cc(NC(C)(C)CCCN)c2ncccc2n1", "Measured target": "Mastomys coucha", "Unit of measure": "%", "Activity": 0.1}
{"Compound": "COc1cc(NC2(CCCN)CC2)c2ncccc2n1", "Measured target": "Mastomys coucha", "Unit of measure": "%", "Activity": 0.1}
{"Compound": "CC(C)Oc1cc(NC(C)(C)CCCN)c2ncccc2n1", "Measured target": "Mastomys coucha", "Unit of measure": "%", "Activity": -0.15}
{"Compound": "CCOc1cc(NC2(CCCN)CC2)c2ncccc2n1", "Measured target": "Mastomys coucha", "Unit of measure": "%", "Activity": -0.12}
{"Compound": "CCOc1cc(NC(C)(C)CCCN)c2ncccc2n1", "Measured target": "Mastomys coucha", "Unit of measure": "%", "Activity": -0.12}
{"Compound": "CC(C)Oc1cc(NC2(CCCN)CC2)c2ncccc2n1", "Measured target": "Mastomys coucha", "Unit of measure": "%", "Activity": -0.1}
{"Compound": "COc1ccc2nc(OC(C)C)cc(NC3(CCCN)CC3)c2n1", "Measured target": "Mastomys coucha", "Unit of measure": "%", "Activity": -0.12}
{"Compound": "CC(C)Oc1cc(NC2(CCCN)CC2)c2nc(C(F)(F)F)ccc2n1", "Measured target": "Mastomys coucha", "Unit of measure": "%", "Activity": 0.14}
{"Compound": "COc1cc(NC(C)CCCN)c2ncccc2c1 (stereo not drawn) [PRIMAQUINE]", "Measured target": "Mastomys coucha", "Unit of measure": "%", "Activity": 3.4}
{"Compound": "CCOc1cc(NC2(CCCN)CC2)c2nc(C(F)(F)F)ccc2n1", "Measured target": "Mastomys coucha", "Unit of measure": "%", "Activity": 0.095}
{"Compound": "COc1cc(NC(C)(C)CCCN)c2nc(C(F)(F)F)ccc2n1", "Measured target": "Mastomys coucha", "Unit of measure": "%", "Activity": -0.11}
{"Compound": "CCOc1cc(NC2(CCCN)CC2)c2nc(OC)ccc2n1", "Measured target": "Mastomys coucha", "Unit of measure": "%", "Activity": -0.1}
